Recorded values, source ChEMBL document CHEMBL1129177.

- Species: Rattus norvegicus
- procedure.text: Dose response for [Ca2+] release from rat brain microsomes was determined
- Assay type: functional
experimental.readout: EC50 (µM)

A: O=P(O)(O)O[C@@H]1[C@H](O)[C@H](O)[C@@H](OP(=O)(O)O)[C@H](OP(=O)(O)O)[C@H]1O
B: O=P1([O-])OC[C@H]2OC([C@H](O)[C@@H]2O)[n+]2ccn3cnc4c(ncn4C4O[C@H](COP(=O)(O)O1)[C@@H](O)[C@H]4O)c32
C: Nc1c2ncn3c2nc[n+]1[C@@H]1O[C@H](COP(=O)([O-])OP(=O)(O)OC[C@H]2O[C@@H]3[C@H](O)[C@@H]2O)[C@@H](O)[C@H]1O
Query block: Sort (3 molecules) by EC50: min first. Give me the labels in the order the question wants.
Result block: A, B, C
(A: 0.09 µM, B: 8 µM, C: 22 µM)
